B1: BAR/IMD domain-containing adapter protein 2 (Homo sapiens), Q9UQB8-4 (parent)
chain: MSLSRSEEMHRLTENVYKTIMEQFNPSLRNFIAMGKNYEKALAGVTYAAKGYFDALVKMGELASESQGSKELGDVLFQMAEVHRQIQNQLEEMLKSFHNELLTQLEQKVELDSRYLSAALKKYQTEQRSKGDALDKCQAELKKLRKKSQGSKNPQKYSDKELQYIDAISNKQGELENYVSDGYKTALTEERRRFCFLVEKQCAVAKNSAAYHSKGKELLAQKLPLWQQACADPSKIPERAVQLMQQVASNGATLPSALSASKSNLVISDPIPGAKPLPVPPELAPFVGRMSAQESTPIMNGVTGPDGEDYSPWADRKAAQPKSLSPPQSQSKLSDSYSNTLPVRKSVTPKNSYATTENKTLPRSSSMAAGLERNGRMRVKAIFSHAAGDNSTLLSFKEGDLITLLVPEARDGWHYGESEKTKMRGWFPFSYTRVLDSDGSDRLHMSLQQGKSSSTGNLLDKDDLAIPPPDYGAASRAFPAQTASGFKQRPYSVAVPAFSQGLDDYGARSMSSGSGTLVSTV

Variants of: B1
Test Conditions: with tir_eco27 tir

Sequence Variant	effect of a mutation on the interaction
R193S	disrupting interaction
K108A;F196A	disrupting interaction
K108A;R193S	disrupting interaction
L28E	disrupting interaction
